# assay summary: RPL19A-GFP modulators, yeast TOR pathway, confirmation, cell-based, S. cerevisiae, flow cytometry, cherry picks, mother/daughter gates (AID 2270)
# condition set: S. cerevisiae RPL19A-GFP strain, 3 h, measured here: mother cell gate, at 10 µM, stronger effect = lower value, 100 = same GFP as DMSO wells
observed property: GFP response vs DMSO (%)
// note: answer is a bare numeric in %

{"molecule": "O=[N+]([O-])c1cc(C(F)(F)F)ccc1Sc1ccc2ccccc2n1", "GFP response vs DMSO / %": 96.4}

Task: Could you tell me which GFP response vs DMSO is on file for `Oc1ccc2ccccc2c1N=Nc1nccs1` ?
Output: 98

Task: Requested read-out: GFP response vs DMSO. Entry: `O=S(=O)(Nc1nc2ccccc2nc1Cl)c1ccc2ccccc2c1`
Output: 98.1

Task: Suppose we examine the molecule `CC(=O)N(\C=C/C=C/C=C1\Sc2ccccc2C1=O)c1ccccc1` ; what GFP response vs DMSO value has been reported?
Output: 108

Task: Recorded GFP response vs DMSO for `CCN(CC)c1ccc(/C=C/c2ccc3ccc(OC)cc3[n+]2CC)cc1` , please?
Output: 101

Task: Given the molecule `CCOc1ccccc1NC(=O)c1nc(S(=O)(=O)Cc2cccc(C)c2)ncc1Cl` , what is its reported GFP response vs DMSO?
Output: 101

Task: Quick one: GFP response vs DMSO for Cc1ccc(C2CC(c3ccco3)=NN2S(C)(=O)=O)cc1 (configuration not stated) ?
Output: 97.1

Task: Give the measured GFP response vs DMSO of Cc1cc(=O)oc2cc(OC(C)C(=O)NC3CCCC3)ccc12 (configuration not stated) .
Output: 102

Task: Could you tell me which GFP response vs DMSO is on file for `Cc1c(CC(C)C)nc(N)c(C#N)c1-c1ccccc1` ?
Output: 99.7

Task: Returns the measured GFP response vs DMSO for the input molecule. Input: `Cn1cc([N+](=O)[O-])c(C(=O)Nc2nc(-c3ccc(Cl)cc3)cs2)n1`
Output: 96.5

Task: Look up GFP response vs DMSO for this molecule: `Cc1cc(O)c(C(=O)/C=C/c2ccc(C(C)C)cc2)c(=O)o1`
Output: 96.6

Task: Need GFP response vs DMSO, item `COC(=O)c1ccc(C(=O)NC(=S)Nc2ccc3nc(SC)sc3c2)cc1`
Output: 98.3

Task: GFP response vs DMSO lookup needed for `Cc1onc(-c2ccccc2)c1C(=O)NC(=S)NNC(=O)c1ccco1` , thanks.
Output: 102

Task: Field request: GFP response vs DMSO | item: `COc1ccc(C(=O)NC(=S)NNC(=O)c2cnccn2)cc1`
Output: 96

Task: # GFP response vs DMSO lookup, item `CCn1c(=O)c(C(=O)NCCc2ccccc2)c(O)c2ccccc21`
Output: 98.8

Task: Dear colleague, I am looking for the recorded GFP response vs DMSO of the following molecule: `COc1cccc(/C=N/NC(=O)CCC(=O)Nc2ccc(Br)cc2)c1`
Output: 98

Task: Look up GFP response vs DMSO for this molecule: `COc1cc(/C=C2\N=C(c3c(-c4ccccc4)noc3C)OC2=O)ccc1OC(C)=O`
Output: 98.9

Task: Consider the molecule COCCN1C2=C(COC(C)(C)C2)C(=S)NC1c1ccccc1 (configuration not stated) and give its measured GFP response vs DMSO.
Output: 99

Task: Which GFP response vs DMSO is reported for this molecule? `COc1ccc(CNC(=O)c2nc(S(=O)(=O)Cc3ccccc3)ncc2Cl)cc1`
Output: 101

Task: // returns reported GFP response vs DMSO for input `COc1ccc(/C=C/C(=O)c2ccc(Cl)cc2)c(OC)c1`
Output: 96.1

Task: Value lookup for GFP response vs DMSO; key = Cc1ccc(C2CC(c3cccs3)=NN2S(=O)(=O)c2ccc(C)cc2)cc1 (configuration not stated)
Output: 102

Task: Name the reported GFP response vs DMSO value associated with the molecule `c1ccc(-c2n[nH]c3ccccc23)cc1`
Output: 97.6

Task: Entry under review: O=C(O)c1ccccc1SC1CC(=O)N(c2ccc3c(c2)OCO3)C1=O (configuration not stated) . Reported GFP response vs DMSO?
Output: 93.8

Task: Fill blank: measured GFP response vs DMSO of the molecule `Clc1ccc(N=c2ssnc2Cl)cc1` is ____.
Output: 92.9

Task: Please give the measured GFP response vs DMSO for this molecule: Cc1cccn2c(=O)c(/C=C(\C#N)C(=O)NC3CCS(=O)(=O)C3)c(N3CC(C)OC(C)C3)nc12 (configuration not stated)
Output: 99.7

Task: Given CCC(Sc1nc(=O)cc(N)n1-c1ccccc1)C(=O)Nc1cc(C)on1 (configuration not stated) , state its recorded GFP response vs DMSO.
Output: 95.3

Task: Sample CCCc1[nH]nc2c1C(c1ccc(O)cc1OCC)C(C#N)=C(N)O2 (configuration not stated) — what was its GFP response vs DMSO?
Output: 100

====

# assay summary: LAP4-GFP expression modulators in yeast, confirmation, cell-based, cherry picks, flow cytometry, mother/daughter gates (AID 2271);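 note: ratio of sample to DMSO plate mean so 100% equals DMSO level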
# condition set: S. cerevisiae LAP4-GFP strain, 3 h, at 10 µM, stronger effect = higher value, 100 means same as DMSO control
observed property: GFP response relative to DMSO (%)
The response must be a number in % with no trailing unit.

Task: Look up GFP response relative to DMSO: `CCc1noc(C)c1C(=O)Nc1nc(-c2cc(C)ccc2C)c(C)s1`
Output: 95

Task: Please give the measured GFP response relative to DMSO for this molecule: `O=[N+]([O-])/C=C/c1cn(Cc2ccc(Cl)cc2)c2ccccc12`
Output: 95

Task: Suppose we examine the molecule `Cc1nc(Sc2ccc(Cl)cc2)c(C#N)c(C)c1[N+](=O)[O-]` ; what GFP response relative to DMSO value has been reported?
Output: 91.8

====

# tgt: Beta-adrenergic receptor kinase 1 (Homo sapiens)
# assay summary: GRK2 binders displacing RNA aptamer, biochemical, validation, human GRK2, bead flow cytometry (AID 488806)
# condition set: bead-bound GRK2, FAM-aptamer displacement, at 10 µM, stronger effect = higher value
Item-by-item account of aptamer binding inhibition
Write down the numeric answer in % and omit the unit.

The cases that follow already have their aptamer binding inhibition on record.
{"compound": "NC(N)=NC(=O)c1nc(Cl)c(N)nc1N", "aptamer binding inhibition / %": 0}
{"compound": "Cc1oc2ccc(OC(=O)c3cccs3)cc2c1C(=O)OC(C)C", "aptamer binding inhibition / %": 1}

Task: Request body: readout aptamer binding inhibition, system Beta-adrenergic receptor kinase 1 (Homo sapiens), query `CCCC(=O)O[C@]1(C(=O)CO)CC[C@H]2[C@@H]3CCC4=CC(=O)CC[C@]4(C)[C@H]3[C@@H](O)C[C@@]21C` . Return the value.
Output: -3

Task: Report aptamer binding inhibition for `CC(C)(C)C(=O)NC(=S)Nc1sc2c(c1C(N)=O)CCC2` tested on Beta-adrenergic receptor kinase 1 (Homo sapiens).
Output: 2

Task: So what aptamer binding inhibition did `Cc1ncc(C(=O)O)c(C(=O)O)c1N` get with Beta-adrenergic receptor kinase 1 (Homo sapiens)?
Output: 2

Task: Under Beta-adrenergic receptor kinase 1 (Homo sapiens): aptamer binding inhibition value of `COC(=O)c1[nH]c2ccc(F)cc2c1NC(=O)C1=COCCO1` ?
Output: 1

Task: Please provide the recorded aptamer binding inhibition for `Cn1c2[n+](c3ccc(Cl)cc3c1=O)Cc1ccccc1-2` , tested on Beta-adrenergic receptor kinase 1 (Homo sapiens).
Output: 1

Task: Beta-adrenergic receptor kinase 1 (Homo sapiens) / aptamer binding inhibition / C/C(=N\N=C1\NC(=O)C(CC(=O)Nc2ccc(Cl)cc2)S1)c1ccco1 (stereo not given) : value?
Output: 16

====

Listed compounds paired with reported GFP response vs DMSO
# assay summary: RPL19A-GFP modulators, yeast TOR pathway, confirmation, cell-based, S. cerevisiae, flow cytometry, cherry picks, mother/daughter gates (AID 2270)
# condition set: S. cerevisiae RPL19A-GFP strain, 3 h, measured here: daughter cell gate, at 10 µM, stronger effect = lower value, 100 = same GFP as DMSO wells
Quick reminder: number only, in %, skip the unit.

Task: Can you share its GFP response vs DMSO? I mean this compound: `Cc1ccccc1Oc1ncnc2oc(-c3ccccc3)cc12`
Output: 98.9

Task: I am curious: what GFP response vs DMSO value has been reported for `CCOc1ccccc1-c1noc(CCC(=O)Nc2cccnc2)n1` ?
Output: 99

====

GFP response, % of DMSO by entry:
# assay summary: modulators of CIT2-GFP expression in yeast, confirmation, S. cerevisiae, GFP fusion, cherry picks, mother/daughter gates (AID 2274)
# condition set: S. cerevisiae CIT2-GFP strain, flow cytometry, 3 h; measured here: mother cell gate; at 10 µM; stronger effect = higher value
Unit % implied. Number only.

{"compound": "Cc1nc2c(-c3ccc(F)cc3)c(C)nn2c(N2CCOCC2)c1C", "GFP response, % of DMSO (%)": 101}

Task: Could you tell me which GFP response, % of DMSO is on file for `CC(C)c1ccc(C(=O)N/N=C/c2cccc(Cl)c2Cl)cc1` ?
Output: 85.8

Task: Fill blank: measured GFP response, % of DMSO of the compound `Cc1ccc(C2=NOC(=O)/C2=C\c2ccc(C)o2)cc1` is ____.
Output: 72.8

Task: Quick one: GFP response, % of DMSO of `CCCN1CCc2c(sc(NC(=S)NC(=O)c3ccccc3)c2C#N)C1` ?
Output: 108
